B1: HDV Ribozyme (parent)
chain: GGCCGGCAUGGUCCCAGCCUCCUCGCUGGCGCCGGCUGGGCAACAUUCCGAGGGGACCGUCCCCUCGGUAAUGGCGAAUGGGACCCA

Variants of: B1
Assay: self-cleavage, relative activity (ratio to wild type); higher = more cleavage; co-transcriptional
Would you please tag the item TRUE when its self-cleavage is 0.3 or above, and FALSE when it is below?

Hi, just wondering whether `GGCCGGCAUGGUCCCAGCCUCCUCGCUGGCGCCGGCUGGGUAACGUUCCGAGGGGACCGUCCCCUCGGUAAUGGCGAAUGGGACCCA` shows self-cleavage of 0.3 or higher.
TRUE

Hi, just wondering whether `GGCCGGCAUGGUCCCAGCCUCCUCGCUGGCGCCGGCUGGGCAACAUUCCGAGAGGACCGUCCCCUCGGUUAUGGCGAAUGGGACCCA` shows self-cleavage of 0.3 or higher.
TRUE

Hi, just wondering whether `GGCCGGCAUGGUCCCAGCCUCCUCGCUGGCGCCGGCUGGGCAACAUUCCGAGGGGACCGUCCCCACGGUAAUGGCUAAUGGGACCCA` shows self-cleavage of 0.3 or higher.
TRUE

Hi, just wondering whether `GGCCGGCAUGGUCCCAGACUCCUCGCUGGCGCCGGCUGGGCAACAUUCGGAGGGGACCGUCCCCUCGGUAAUGGCGAAUGGGACCCA` shows self-cleavage of 0.3 or higher.
FALSE

Hi, just wondering whether `GGCUGGCAUGGUCCCAGCCUCCUCGCUGGCGCAGGCUGGGCAACAUUCCGAGGGGACCGUCCCCUCGGUAAUGGCGAAUGGGACCCA` shows self-cleavage of 0.3 or higher.
FALSE

Hi, just wondering whether `GGCCGGCAUGGUCCCAGCCUCCUCGCUGGCGCCGGCCGGGCAACAUUCCGAGGGGACCGUCCCCUCGGUAAUGGCGAAUAGGACCCA` shows self-cleavage of 0.3 or higher.
FALSE

Hi, just wondering whether `GGCCGGCAUGGUCCCAGCCUCCUCGCUGGCGCCGGCUGGGCAACAUUCUGAGGGGACCGUCCCCUCGGUAAUGGCGAAUGGGACCCU` shows self-cleavage of 0.3 or higher.
TRUE

Hi, just wondering whether `GGCCGGCAUGGUCCCAGCCUCCUCGCUGGCGCCGACUGGGCAACAUUCGGAGGGGACCGUCCCCUCGGUAAUGGCGAAUGGGACCCA` shows self-cleavage of 0.3 or higher.
TRUE

Hi, just wondering whether `GGCCGGCAUGGUCCCAGCCUCCUCGCUGGCGACGGCUGGGCAACAUUCCGAGGGGACCGUCCCCUCGGUAAUGGCGAAUGGGACCCA` shows self-cleavage of 0.3 or higher.
FALSE

Hi, just wondering whether `GGCCGGCAUGGUCCCAGCCUCUUCACUGGCGCCGGCUGGGCAACAUUCCGAGGGGACCGUCCCCUCGGUAAUGGCGAAUGGGACCCA` shows self-cleavage of 0.3 or higher.
FALSE

Hi, just wondering whether `GGCCGGCAUGGUCCCAGCCUCCUCGCUGGCGCCGGCUGGGCAACAUUCCGAGGGGCCCGUCCCCUCGGUAAUGGCGAAUGGUACCCA` shows self-cleavage of 0.3 or higher.
TRUE

Hi, just wondering whether `GGCCGUCAUGGUCCCAGCCUCCUCGCUGGCGCCGGCUGGGCAACAUUCCGAGGGGACCGUCCCCUCGUUAAUGGCGAAUGGGACCCA` shows self-cleavage of 0.3 or higher.
TRUE

Hi, just wondering whether `GGCCGGCAUGGUCCCAGCCUCCUCGCUGGCGCCGGCUGGGCAACAUUCCGAGGGGACUGUCCCCCCGGUAAUGGCGAAUGGGACCCA` shows self-cleavage of 0.3 or higher.
TRUE

Hi, just wondering whether `GGCCGGCAUGGUCCCAGCCUCCUCGCUGGCGCCGGCUGGGCAACAUUCAGAGGGGACCGUCCCCUCGGUAAUAGCGAAUGGGACCCA` shows self-cleavage of 0.3 or higher.
TRUE

Hi, just wondering whether `GGCCGGCAUGGUCCCAGCCUCCUCGCUAGCGCCGGCUGGGCAUCAUUCCGAGGGGACCGUCCCCUCGGUAAUGGCGAAUGGGACCCA` shows self-cleavage of 0.3 or higher.
FALSE

Hi, just wondering whether `GGCCGGCAUGGUCCCAGCCUCCUCGCUGGCGCCGGCUGGGCAACAUUCCGAGGGGACCGUCCCCUCGGUAAUGGCGUAUGGGACCAA` shows self-cleavage of 0.3 or higher.
TRUE

Hi, just wondering whether `GGCCGGCAUGGUCCCAGCCUCCUCGCUGGCGCCGGCUGGGCAACAUUCCGAGGGGACUGUCCCCUCGGAAAUGGCGAAUGGGACCCA` shows self-cleavage of 0.3 or higher.
TRUE

Hi, just wondering whether `GGCCGAGAUGGUCCCAGCCUCCUCGCUGGCGCCGGCUGGGCAACAUUCCGAGGGGACCGUCCCCUCGGUAAUGGCGAAUGGGACCCA` shows self-cleavage of 0.3 or higher.
FALSE

Hi, just wondering whether `GGCCGGCAUGGUCCCAGCCUCCUCGCUGGCGCCGGCUGGGUAACAUUCCGAGGGGACCGUCCUCUCGGUAAUGGCGAAUGGGACCCA` shows self-cleavage of 0.3 or higher.
TRUE

Hi, just wondering whether `GGCCGGCAUGGUCCCAGCCACGUCGCUGGCGCCGGCUGGGCAACAUUCCGAGGGGACCGUCCCCUCGGUAAUGGCGAAUGGGACCCA` shows self-cleavage of 0.3 or higher.
FALSE

Hi, just wondering whether `GGCCGGCAUGGUCCCAGCCUCCUCGCUGGCGCCGGCUGGGCAACAUUCCGAGGGGACCGUCCCCUCGGUGAUGGCGAAUGGGAGCCA` shows self-cleavage of 0.3 or higher.
TRUE

Hi, just wondering whether `GGCCGGCAUGGUCCCAGCCUCCUCGCUGGCGCCGGCUGGGCAACAUUCAGAGGGGACCGUCCCCUCGGUAAUGACGAAUGGGACCCA` shows self-cleavage of 0.3 or higher.
FALSE

Hi, just wondering whether `GGCCGGCAUGGUCCCAGCCCCCUCGCUGGCGCCGGCUGGUCAACAUUCCGAGGGGACCGUCCCCUCGGUAAUGGCGAAUGGGACCCA` shows self-cleavage of 0.3 or higher.
FALSE

Hi, just wondering whether `GGCCGGCAUGGUCCCAGCCUACUCGCUGACGCCGGCUGGGCAACAUUCCGAGGGGACCGUCCCCUCGGUAAUGGCGAAUGGGACCCA` shows self-cleavage of 0.3 or higher.
FALSE

Hi, just wondering whether `GGCCGGCAUGGUCCCAGCCUCCUCGCUGGCGCCGGCUGGGCAACAUUCCGAGGGGACCGUACCCUCGGUAAUGGCGAAUGGAACCCA` shows self-cleavage of 0.3 or higher.
TRUE

Hi, just wondering whether `GGCCGGCAUGGUCCCAGCCUCCUCGCUGGCGCCGGCUGGGCAACAUUCCGAGGGGACUGUCCCCUCGGUAAUGGCGAAUGGGACCCG` shows self-cleavage of 0.3 or higher.
TRUE

Hi, just wondering whether `GGCCGGCAUGGUCCCAGCCUCCUCGCUAGCGCCGGUUGGGCAACAUUCCGAGGGGACCGUCCCCUCGGUAAUGGCGAAUGGGACCCA` shows self-cleavage of 0.3 or higher.
FALSE

Hi, just wondering whether `GGCCGGAAUGGUCCCAGCAUCCUCGCUGGCGCCGGCUGGGCAACAUUCCGAGGGGACCGUCCCCUCGGUAAUGGCGAAUGGGACCCA` shows self-cleavage of 0.3 or higher.
FALSE

Hi, just wondering whether `GGCCGGCAUGGUCCCAGCCUCCUCGCUGGCGCCGGCUGGGCAACAUUCCGAGGGGACCGUCCCCUUGGUAGUGGCGAAUGGGACCCA` shows self-cleavage of 0.3 or higher.
TRUE

Hi, just wondering whether `GGCCGGCAUGGUCCCAGCCUCCUCGCUGGCGCCGGCUGGGCAACAUCCCGAGGGGACCGUCCCCUCGGUAAUGGCCAAUGGGACCCA` shows self-cleavage of 0.3 or higher.
TRUE

Hi, just wondering whether `GGCCGGCAUGGUCCCAGCCUCCUCGCUAGCGCCGGCUGGGCCACAUUCCGAGGGGACCGUCCCCUCGGUAAUGGCGAAUGGGACCCA` shows self-cleavage of 0.3 or higher.
FALSE

Hi, just wondering whether `GGCCGGCAUGGUCCCAGCCUCCUCGCUGGCGCCGGCUGGGCAACAUACCGAGGGGACCGUCCCCUCGGUAAUGGCGAAUGGGACACA` shows self-cleavage of 0.3 or higher.
TRUE

Hi, just wondering whether `GGCCGGCUUGGUCCUAGCCUCCUCGCUGGCGCCGGCUGGGCAACAUUCCGAGGGGACCGUCCCCUCGGUAAUGGCGAAUGGGACCCA` shows self-cleavage of 0.3 or higher.
TRUE

Hi, just wondering whether `GGCCGGCAUGGUCCUAGCCUCCUCGCUGGCGCCGGCUGGGCAACAUUCCGAGGGGACCGUCCCCUCGGUAAUGGCGAAUGGGGCCCA` shows self-cleavage of 0.3 or higher.
TRUE

Hi, just wondering whether `GGCCGGCAUGGUCCCAGCCGCCUCGCUGGCGCCGGCUGGGCAACAUUCCGAGGGGACCGUCCCCUCGGUAAUGUCGAAUGGGACCCA` shows self-cleavage of 0.3 or higher.
FALSE

Hi, just wondering whether `GGCCGGCAUGGUCCCAGCCUUCUCGCUGGCGCCGGCUGGGCAAAAUUCCGAGGGGACCGUCCCCUCGGUAAUGGCGAAUGGGACCCA` shows self-cleavage of 0.3 or higher.
TRUE

Hi, just wondering whether `GGCCGGCAUGGUCCCAGCCUCCUCGCUGGCGACGGCUGGGCAACAUUCCGAGGGGACCGUCCCCUCGGUAAUGCCGAAUGGGACCCA` shows self-cleavage of 0.3 or higher.
FALSE
